assay_context: basic group
Categories are assigned from the measured pKa using these intervals: class A (below 3), class B (3 to below 6), class C (6 or more)

Incoming: Please let me know in which category the item Nc1ccc(S(=O)(=O)Nc2nccs2)cc1 belongs.
Outgoing: class A

Incoming: Oc1ccc2c(c1)Nc1ccccc1N2 ?
Outgoing: class A

Incoming: c1ccc(Cn2ccnc2)cc1 ?
Outgoing: class C

Incoming: COc1ccc(/N=C/N(C)C)cc1 ?
Outgoing: class C

Incoming: N[C@@H]1CCCC[C@@H]1O ?
Outgoing: class C

Incoming: c1ccc2c(c1)N1CC[NH+]2CC1 ?
Outgoing: class A

Incoming: CCN(CC)CCC[NH+](CC)CC ?
Outgoing: class C

Incoming: [NH3+][C@@H](Cc1c[nH]cn1)C(=O)N[C@@H](Cc1c[nH]c[nH+]1)C(=O)[O-] ?
Outgoing: class B

Incoming: OCc1cc(-c2ccccc2)nnc1NCCN1CCOCC1 ?
Outgoing: class C

Incoming: Cc1c(Cn2ccnc2)n(C)c2ccc(C(=O)[O-])cc12 ?
Outgoing: class C

Next:
Incoming: Please let me know in which category the item CN(C)c1ccc(C(=N)c2ccc(N(C)C)cc2)cc1 belongs.
Outgoing: class C

Incoming: Cc1cc(N)cc(C)c1[N+](=O)[O-] ?
Outgoing: class A

Incoming: COc1ccc(-c2ncc(-c3ccc(C)cc3)o2)cc1 ?
Outgoing: class A

Incoming: c1cnc2c(c1)ccc1c3c(cnc12)CCC3 ?
Outgoing: class B

Incoming: Nc1nc(N)nc([O-])n1 ?
Outgoing: class C

Incoming: NNC(=O)c1ccccc1[NH3+] ?
Outgoing: class A

Incoming: Cn1cnc2cccc(N)c21 ?
Outgoing: class B

Incoming: Oc1ccc(Cl)c2cccnc12 ?
Outgoing: class B

Incoming: Cc1cn(C)nc1C ?
Outgoing: class B

Incoming: CC(O)CNCC[NH3+] (configuration not stated) ?
Outgoing: class C

Incoming: Cc1cc(-c2[nH]cc[nH+]2)nn1C ?
Outgoing: class A

Incoming: Cc1cnoc1C ?
Outgoing: class A

Incoming: Cn1ncc2c(NCc3ccccc3)ncnc21 ?
Outgoing: class B

Incoming: CN1C=C(C#N)CCC1 ?
Outgoing: class A

Incoming: Cc1cc(Br)ccc1N ?
Outgoing: class B

Incoming: Nc1nccc([O-])n1 ?
Outgoing: class C

Incoming: Oc1c(I)cc(Cl)c2cccnc12 ?
Outgoing: class A

Incoming: Nc1nnnn1Cc1ccccc1 ?
Outgoing: class A

Incoming: NOCc1ccc(Cl)cc1 ?
Outgoing: class B

Incoming: CNN(C)C ?
Outgoing: class C

Incoming: [O-]c1nc([O-])c2[nH]nnc2[nH+]1 ?
Outgoing: class B

* * *

assay_context: basic group
Please use Fulfilled whenever pKa is not below 5, and Not fulfilled whenever it is.

Look over these answered cases.
Incoming: Record c1ccc(-c2cc3c(-c4ccccc4)ccnc3c3ncccc23)cc1 ; criterion: pKa no lower than 5. Met?
Outgoing: Not fulfilled

Incoming: C/C=C1/CN2[C@@H]3C[C@H]1C1[C@@H](O)[C@]4(C[C@@H]12)c1ccccc1N(C)[C@@H]34 (stereo partly specified) ?
Outgoing: Fulfilled

Incoming: N/C(CC([NH3+])c1ccccc1)=N\O (stereo unspecified) ?
Outgoing: Not fulfilled

Incoming: CCC(=O)C(CC(C)N1CCCCC1)(c1ccccc1)c1ccccc1 (stereo unspecified) ?
Outgoing: Fulfilled

Next:
Incoming: Record CN[C@@H]1[C@@H](C)[C@@H]1[NH2+]C ; criterion: pKa no lower than 5. Met?
Outgoing: Not fulfilled

Incoming: NCCCCCCO ?
Outgoing: Fulfilled

Incoming: C[C@@H](CC(C#N)(c1ccccc1)c1ccccc1)N(C)C ?
Outgoing: Fulfilled

* * *

assay_context: basic group
Items are presented alongside their recorded pKa.
// response body must contain only the number

Incoming: Which pKa value is on record for CN1C2CCC(CC2)N1C ?
Outgoing: 7.14

Next:
Incoming: Which pKa value is on record for CC(C)N[C@H](c1ccccc1)[C@H](O)c1ccccc1 ?
Outgoing: 11.8

Incoming: c1ccc(Cc2cc(-c3ccccc3)nnc2NCC[NH+]2CCOCC2)cc1 ?
Outgoing: 3.6

Incoming: O=C(N/[NH+]=C/c1ccccc1)c1ccncc1 ?
Outgoing: 1.82

Incoming: CCCCCSC(=N)c1ccccc1 ?
Outgoing: 8.5

Incoming: CN[C@H]1C(C)[C@@H]1NC (some centres undefined) ?
Outgoing: 9.03

Incoming: COc1ccc(OC)c2c1nc(C)n2C ?
Outgoing: 6.12

Incoming: Nc1cncc2ccccc12 ?
Outgoing: 6.28

Incoming: CCCNCC(=O)Nc1c(C)cccc1C ?
Outgoing: 8.01

Incoming: O=C([O-])CN(CC(=O)[O-])Cc1nc2ccccc2[nH]1 ?
Outgoing: 6.87

Incoming: CC(CC(C#N)(c1ccccc1)c1ccccc1)N1CCCCC1 (centres undefined) ?
Outgoing: 7.73

Incoming: [O-]c1[nH+]cnc2nc[nH]c12 ?
Outgoing: 1.99

Incoming: C1CCCNCCCCCCNCC1 ?
Outgoing: 9.6

Incoming: CC1=[NH+]c2ccccc2/C1=C/C=C1\Cc2ccccc2N1C ?
Outgoing: 1.22

* * *

Items are presented alongside their recorded pKa.
assay_context: basic group
// response body must contain only the number

Incoming: Which pKa value is on record for COc1cccnn1 ?
Outgoing: 2.52

Next:
Incoming: Which pKa value is on record for Cc1ccnc(C)c1 ?
Outgoing: 6.77

Incoming: Cc1c(Br)cc(N)cc1Br ?
Outgoing: 2.87

Incoming: Cc1cnc([C@@H](O)[C@H](O)[C@H](O)CO)cn1 ?
Outgoing: 1.4

Incoming: [NH3+]CCCCCc1ccncc1 ?
Outgoing: 5.99

Incoming: CN(C)c1ccc(Cl)cc1 ?
Outgoing: 4.39

Incoming: CC(C)SCCN ?
Outgoing: 9.23

Incoming: Nc1cccc(N)c1 ?
Outgoing: 5.04

Incoming: N#CC(C#N)=NNc1ccc(C(=O)CCl)cc1 ?
Outgoing: -0.76

* * *

assay_context: acidic group
readout: pKa
// response body must contain only the number

Incoming: Which pKa value is on record for [O-][n+]1cnc2[nH]cnc2c1NCc1ccccc1 ?
Outgoing: 8.22

Incoming: CCOC(=O)/C(C)=N/O ?
Outgoing: 9.64

Incoming: Cc1cccc(I)c1C(=O)O ?
Outgoing: 2.7

Incoming: O=C(c1ccccc1)c1ccc(O)c(O)c1 ?
Outgoing: 7.74

Incoming: O=C(O)c1ccc2sc(Cn3cc[nH+]c3)cc2c1 ?
Outgoing: 3.9

Incoming: Cc1c(Br)cccc1C(=O)O ?
Outgoing: 3.36

Incoming: CCC(=O)/C=N/O ?
Outgoing: 8.37

Incoming: CC(=O)N1CCC[C@H]1C(=O)O ?
Outgoing: 3.21

Incoming: NS(=O)(=O)c1nccs1 ?
Outgoing: 8.25

Incoming: O=C1NS(=O)(=O)c2ccccc21 ?
Outgoing: 1.76

Next:
Incoming: Which pKa value is on record for CCCCSC(=N)c1ccccc1 ?
Outgoing: 8.21

Incoming: CC(=O)/C(Cl)=N/O ?
Outgoing: 7.9

Incoming: C[C@@H]1C[C@@H]1C(=O)O ?
Outgoing: 5.03

Incoming: O=[N+]([O-])c1ccc(O)c(C[NH+]2CCOCCOCCOCCOCCOCC2)c1 ?
Outgoing: 5.77

Incoming: Cc1ccc(C(=O)O)cc1Br ?
Outgoing: 3.96

* * *

assay_context: basic group
readout: pKa
// response body must contain only the number

These recorded examples may help you get a feel for the data.
Incoming: Which pKa value is on record for COC(=O)c1ccc2ncccc2c1 ?
Outgoing: 3.8

Incoming: O=C(Cc1ccccc1Nc1c(Cl)cccc1Cl)OCCN1CCOCC1 ?
Outgoing: 7.52

Incoming: CCCC[NH2+]CCN ?
Outgoing: 7.53

Incoming: Cc1ccccc1/C(=N\CCCN(C)C)c1ccccc1N ?
Outgoing: 9

Incoming: CCOCCn1c(CN2CCC[NH+](CCCCn3cccn3)CC2)nc2ccccc21 ?
Outgoing: 4.9

Next:
Incoming: Which pKa value is on record for c1nc(NC2CCCCC2)c2[nH]cnc2n1 ?
Outgoing: 4.2

Incoming: Nc1cc2ccccc2cn1 ?
Outgoing: 5.05

Incoming: Nc1nnnn1-c1cccc(Cl)c1 ?
Outgoing: 0.7

Incoming: CN(C)CCC/N=C(\c1ccccc1)c1ccccc1Cl ?
Outgoing: 9

Incoming: Nc1nc[nH+]c2c1ncn2CCOCP(=O)(O)O ?
Outgoing: -0.35

Incoming: CCc1c(C)c[nH]c1C ?
Outgoing: 3.19

Incoming: C(CN1CCOCC1)CN1CCOCC1 ?
Outgoing: 7.25

Incoming: NCCCC[NH2+]CCCN ?
Outgoing: 9.86

Incoming: CN(C)CC(CSCc1ccccc1)SCc1ccccc1 (centres undefined) ?
Outgoing: 7.3

* * *

assay_context: basic group
Please use Fulfilled whenever pKa is not below 5, and Not fulfilled whenever it is.

Look over these answered cases.
Incoming: Record Nc1ncc([N+](=O)[O-])s1 ; criterion: pKa no lower than 5. Met?
Outgoing: Not fulfilled

Incoming: CCCCC[C@H](C)N ?
Outgoing: Fulfilled

Incoming: NC(=O)Cc1cccnc1 ?
Outgoing: Not fulfilled

Incoming: O=C(Cc1ccncc1)c1ccccc1 ?
Outgoing: Not fulfilled

Incoming: Nc1ccc(-c2ccc(/[NH+]=C/c3ccccc3O)cc2)cc1 ?
Outgoing: Not fulfilled

Incoming: CN1CC[C@]23c4c5ccc(O)c4O[C@H]2[C@@H](O)CC[C@H]3[C@H]1C5 ?
Outgoing: Fulfilled

Here is the next item to consider.
Incoming: Record CCOCCn1c(CN2CCCN(CCCCn3cc(C(=O)[O-])cn3)CC2)nc2ccccc21 ; criterion: pKa no lower than 5. Met?
Outgoing: Fulfilled
